Source of measurements: patent US20240286998A1

Subject Of Test: 5-HT2C (Homo sapiens (Human), UniProt P28335)
Sequence (P28335 whole entry, looked up): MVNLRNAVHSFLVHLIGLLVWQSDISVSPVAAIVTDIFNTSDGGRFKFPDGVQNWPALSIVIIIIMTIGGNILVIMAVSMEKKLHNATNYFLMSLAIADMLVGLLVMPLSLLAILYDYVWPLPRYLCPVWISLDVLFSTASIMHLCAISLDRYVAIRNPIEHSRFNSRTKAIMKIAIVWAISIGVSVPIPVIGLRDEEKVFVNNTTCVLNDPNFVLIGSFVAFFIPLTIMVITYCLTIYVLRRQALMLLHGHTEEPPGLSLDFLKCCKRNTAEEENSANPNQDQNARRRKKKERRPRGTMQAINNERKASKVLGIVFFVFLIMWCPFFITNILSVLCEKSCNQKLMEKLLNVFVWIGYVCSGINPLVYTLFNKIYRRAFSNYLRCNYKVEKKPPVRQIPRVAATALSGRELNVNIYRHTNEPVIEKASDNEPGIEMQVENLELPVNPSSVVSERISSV
Assay Info: 5-HT2C Gq-mediated calcium flux functional assay
Type: cell-based
Study Conditions: IA = Inactive; N=1-3
We begin with a simple list: items and their reported 5-HT2C-Ca2+ FLUX Emax (% 5-HT).

Molecule	5-HT2C-Ca2+ FLUX Emax (% 5-HT)
CN1CCC[C@H]1Cc1c[nH]c2ccc(F)cc12	18.5 ± 0.7 % 5-HT
C#CCN(CCC)CCc1c[nH]c2c(F)cccc12	56.5 ± 2.1 % 5-HT
CCN(C)CCc1c[nH]c2c(F)c(F)c(F)cc12	89.3 ± 1.3 % 5-HT
C=CC(C)N(C)CCc1c[nH]c2ccc(F)cc12 (stereo not shown)	87.4 ± 1.5 % 5-HT
CC(C)N(CCc1c[nH]c2ccc(F)cc12)C1CCC1	94.9 ± 2.0 % 5-HT
C#CCN(CCc1c[nH]c2ccc(F)cc12)C(C)CC (stereo not shown)	99.6 ± 1.5 % 5-HT
CCCN(CC)CCc1c[nH]c2cc(F)c(F)cc12	100.7 ± 3.0 % 5-HT
CCCN(CC)CCc1c[nH]c2c(F)c(F)c(F)cc12	102.8 ± 1.7 % 5-HT
CCN(C)CCc1c[nH]c2c(Br)cc(F)cc12	39.9 ± 1.1 % 5-HT
CN1CCC(c2c[nH]c3cc(F)c(F)cc23)C1 (stereo not shown)	70.5 ± 2.3 % 5-HT
C=CCN(C)CCc1c[nH]c2ccc(F)cc12	97.4 ± 2.6 % 5-HT
CC(CN)c1c[nH]c2ccc(F)cc12 (stereo not shown)	93.6 ± 0.9 % 5-HT
CN(CCc1c[nH]c2ccc(F)cc12)C1CSC1	55.0 ± 2.8 % 5-HT
